- system under test: human calcium receptor (Homo sapiens, UniProt P41180, R990G)
- Construct: expressed in transfected cells; host or cells: HEK 293
- Sequence (P41180 20-1078 R990G): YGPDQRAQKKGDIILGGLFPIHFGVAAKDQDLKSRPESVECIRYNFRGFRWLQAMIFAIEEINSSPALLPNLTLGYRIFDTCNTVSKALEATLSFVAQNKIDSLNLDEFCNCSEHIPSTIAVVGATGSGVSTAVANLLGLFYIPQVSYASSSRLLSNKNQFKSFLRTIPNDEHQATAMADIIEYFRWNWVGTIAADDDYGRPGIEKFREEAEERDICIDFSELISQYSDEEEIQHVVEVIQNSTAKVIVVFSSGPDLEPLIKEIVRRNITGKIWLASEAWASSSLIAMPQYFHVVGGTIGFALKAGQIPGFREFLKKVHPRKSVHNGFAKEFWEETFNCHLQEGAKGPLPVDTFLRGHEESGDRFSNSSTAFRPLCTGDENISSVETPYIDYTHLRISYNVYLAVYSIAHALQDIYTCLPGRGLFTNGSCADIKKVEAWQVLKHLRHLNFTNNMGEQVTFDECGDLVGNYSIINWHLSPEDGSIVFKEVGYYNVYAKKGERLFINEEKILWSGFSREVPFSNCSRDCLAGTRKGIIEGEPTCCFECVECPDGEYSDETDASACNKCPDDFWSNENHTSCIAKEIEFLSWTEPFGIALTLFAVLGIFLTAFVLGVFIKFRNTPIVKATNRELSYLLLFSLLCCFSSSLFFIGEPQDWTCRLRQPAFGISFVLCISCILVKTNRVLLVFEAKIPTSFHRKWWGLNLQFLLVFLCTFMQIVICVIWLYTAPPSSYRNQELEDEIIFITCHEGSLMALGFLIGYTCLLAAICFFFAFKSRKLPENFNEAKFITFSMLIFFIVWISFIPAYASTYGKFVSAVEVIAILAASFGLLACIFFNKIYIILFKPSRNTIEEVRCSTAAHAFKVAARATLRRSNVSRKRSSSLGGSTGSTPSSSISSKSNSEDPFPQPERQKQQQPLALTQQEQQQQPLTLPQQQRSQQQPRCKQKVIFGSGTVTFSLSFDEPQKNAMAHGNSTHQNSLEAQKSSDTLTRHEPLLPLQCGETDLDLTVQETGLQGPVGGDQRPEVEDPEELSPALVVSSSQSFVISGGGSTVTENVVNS
- assay details: increases in [Ca^2+ ]i in HEK-293 cells expressing the human calcium receptor (fura-2 loaded HEK 293/pHuPCaR4.0 cells), % activity
- Format: cell-based
- details: 330 ng/mL
measurement type: % activity (%)
Record the value in %, omitting the unit from your answer.

Recorded % activity for COc1ccc(CN[C@H](C)c2cccc3ccccc23)cc1Br [Compound 24X] , please? 109

====

- system under test: human calcium receptor (Homo sapiens, UniProt P41180, R990G)
- Construct: expressed in transfected cells; host or cells: HEK 293
- assay details: increases in [Ca^2+ ]i in HEK-293 cells expressing the human calcium receptor (fura-2 loaded HEK 293/pHuPCaR4.0 cells), % activity
- Format: cell-based
- details: 330 ng/mL
Could you mark each record T if its % activity falls strictly under 90%, and F if it equals or exceeds it?

COc1cccc([C@@H](C)N[C@H](C)CCc2cccc(OC(F)(F)F)c2)c1 [Compound 23A]; F

In plain terms, does COc1cccc(C(C)NCc2cccc3ccccc23)c1 (stereo not drawn) come in under 90% for % activity? T

// same read-out, input: COc1ccc(CNC(C)c2ccc(OC)c3ccccc23)cc1C (stereo not drawn) [Compound 18C] T

// same read-out, input: CC(NCCCc1ccccc1)c1ccccc1 (stereo not drawn) [Compound 1D] T

====

- system under test: human calcium receptor (Homo sapiens, UniProt P41180, R990G)
- Construct: expressed in transfected cells; host or cells: HEK 293
- assay details: increases in [Ca^2+ ]i in HEK-293 cells expressing the human calcium receptor (fura-2 loaded HEK 293/pHuPCaR4.0 cells), % activity
- Format: cell-based
- details: 3300 ng/mL
measurement type: % activity (%)
Record the value in %, omitting the unit from your answer.

// worked examples, % activity included
COc1cccc([C@@H](C)NC(C)CCc2ccccc2Cl)c1 (stereo partly drawn) [21C = 4U]; 134
COc1ccc(CNC(C)c2ccccc2F)cc1C (stereo not drawn) [Compound 23J]; 102
COc1ccc(CNC(C)c2ccc(OC)c3ccccc23)cc1C (stereo not drawn) [Compound 18C]; 99

Fill in the recorded % activity for this compound, with human calcium receptor (Homo sapiens, UniProt P41180, R990G) as test system: COc1cccc(CCNC(C)c2cccc3ccccc23)c1 (stereo not drawn) [Compound 15I] 111

// same read-out, input: C[C@@H](NCc1cccc(OC(F)(F)F)c1)c1cccc2ccccc12 [Compound 23E] 137

// same read-out, input: CC(c1ccc(C(C)(C)C)cc1)N(C)CCCc1ccccc1 (stereo not drawn) [Compound 14J] 55

====

- system under test: human calcium receptor (Homo sapiens, UniProt P41180, R990G)
- Construct: expressed in transfected cells; host or cells: HEK 293
- assay details: increases in [Ca^2+ ]i in HEK-293 cells expressing the human calcium receptor (fura-2 loaded HEK 293/pHuPCaR4.0 cells), % activity
- Format: cell-based
- details: 33 ng/mL
measurement type: % activity
Give your result as the value with the unit written after it.

Recorded % activity for COc1cccc([C@@H](C)NCC=Cc2ccc(C)cc2)c1 [Compound 12B] , please? 56%

====

Below is a list of entries, each paired with its recorded % activity value.
- system under test: human calcium receptor (Homo sapiens, UniProt P41180, R990G)
- Construct: expressed in transfected cells; host or cells: HEK 293
- assay details: increases in [Ca^2+ ]i in HEK-293 cells expressing the human calcium receptor (fura-2 loaded HEK 293/pHuPCaR4.0 cells), % activity
- Assay type: cell-based
- details: 330 ng/mL
Record the value in %, omitting the unit from your answer.

// worked examples, % activity included
CC(NCCc1ccccc1)c1ccc(C(C)(C)C)cc1 (centres unmarked) [Compound 14H]; 49
COc1cccc([C@@H](C)NCC=Cc2ccc(C)cc2)c1 [Compound 12B]; 110
COc1ccc(C(N[C@H](C)c2cccc3ccccc23)C2CC2)cc1 (some centres unmarked) [Compound 17H]; 124
COc1cccc(C(C)NC(C)c2cccc(OC)c2)c1 (centres unmarked) [Compound 16N]; 159

Okay, now this compound:
Recorded % activity for C[C@@H](NCCCc1ccccc1Cl)c1cccc(OCC(F)F)c1 [Compound 21V] , please? 116

These entries and their values trace back to patent US6211244A.
